The reported measurements were obtained from patent US8318731B2.

experimental.readout: melting point (°C)

INSERT INTO results (compound, meas_value) VALUES
  ('CN1CCCN(C)C(=O)COc2cc(ccc2OCCNc2nccs2)Nc2ncnc3[nH]cc(c23)C1 [Compound 156]', 238.4),
  ('CCOCCOc1ccc2cc1OCC(=O)N(C)CCCN(C)Cc1cn(C)c3ncnc(c13)N2 [Compound 81]', 221),
  ('COc1ccc2cc1OCCCC(=O)N(C)CC1CN(Cc3c[nH]c4ncnc(c34)N2)C1 [Compound 73]', 265.3),
  ('COc1ccc(OCCOc2ccc3cc2OCC(=O)N(C)CCCN(C)Cc2c[nH]c4ncnc(c24)N3)cc1 [Compound 155]', 250.4),
  ('CN1CCCN(C)C(=O)COc2cc(ccc2OCCNc2ccc(Cl)cc2)Nc2ncnc3[nH]cc(c23)C1 [Compound 79]', 269.3),
  ('COc1ccc(OCCCOc2ccc3cc2OCC(=O)N(C)CCCN(C)Cc2c[nH]c4ncnc(c24)N3)cc1 [Compound 78]', 222.2),
  ('CCOCCOc1ccc2cc1OCC(=O)N(C)CCCN(C)Cc1c[nH]c3ncnc(c13)N2 [Compound 70]', 237.8),
  ('CCOCCOc1ccc2cc1OCC(=O)N(C)CCCNCc1c[nH]c3ncnc(c13)N2 [Compound 75]', 237.4);
